Measured Hemolysis (%) 150 µM, listed per entry.
Test system: erythrocyte suspensions of horse blood;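 further: Read-out is hemoglobin release into the supernatant, with a buffer-only blank subtracted as the 0% baseline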
Condition details: 150 µM peptide; horse erythrocytes 5% vol/vol, TRIS buffer pH 7.2, 1 h at 37°C, absorbance 540 nm; relative to melittin 100 μM; ± confidence interval (α = 0.05)
Where a SMILES comes first, the peptide text is derived from it. Side-chain parts run from the residue outwards. [ ]: non-standard residue; d: D form. The star is where a group is joined. Pentanoyl(4-Me) = CC(C)CCC(=O)*; Hexanoyl = CCCCCC(=O)*
# unit: % | format: bare number

Worked examples, 2 compounds total:
{"columns": ["Compound", "Hemolysis (%) 150 µM"],
 "data": [
  ["CCCCCC(=O)N[C@@H](CCCCN)C(=O)N[C@@H](CC(C)C)C(=O)NCCCC[C@H]1NC(=O)[C@H](CCCCN)NC(=O)[C@H](CC(C)C)NC(=O)[C@H](CCCCN)NC(=O)[C@H](CCCCN)NC(=O)[C@H](CCC(N)=O)NC(=O)[C@H](CC(C)C)NC(=O)[C@H](CCCCN)NC(=O)[C@H](CCCCN)NC(=O)[C@H](Cc2ccccc2)NC1=O [BPC672, c(KKLKk(LK-CO-nC5H11)FKKLQ)] (cyclo(FKKLQKKLK[dK]([Leu-Lys-Hexanoyl])))", 33],
  ["CCCCCC(=O)NCCCC[C@@H]1NC(=O)[C@H](CCC(N)=O)NC(=O)[C@H](CC(C)C)NC(=O)[C@H](CCCCN)NC(=O)[C@H](CCCCN)NC(=O)[C@H](Cc2ccccc2)NC(=O)[C@H](CCCCN)NC(=O)[C@H](CCCCN)NC(=O)[C@H](CC(C)C)NC(=O)[C@H](CCCCN)NC1=O [BPC590] (cyclo(FKKLQK(Hexanoyl)KLKK))", 100]
]}

[ask] State the recorded Hemolysis (%) 150 µM for this entry: CC(C)CCC(=O)NCCCC[C@H]1NC(=O)[C@H](CCCCN)NC(=O)[C@H](CC(C)C)NC(=O)[C@H](CCCCN)NC(=O)[C@H](CCCCN)NC(=O)[C@H](CCC(N)=O)NC(=O)[C@H](CC(C)C)NC(=O)[C@H](CCCCN)NC(=O)[C@H](CCCCN)NC(=O)[C@H](Cc2ccccc2)NC1=O [BPC630, c(KKLKk(CO-isoC5H11)FKKLQ)] (cyclo(FKKLQKKLK[dK](Pentanoyl(4-Me))))
[reply] 22

Origin of the recorded values: paper PMC4805166
